test system: H3K27me3 mark in HeLa cells (EZH2); assay: H3K27me3 Alpha Hela Assay (AlphaLISA); assay type: cell-based; details: HeLa cell assay; Table 3 classes; read-out: EC50 Cellular Activity
measured-endpoint: EC50

>>> print(df.to_string())
                                    compound                     subject_of_test   test_result
 0  CSc1cc(C)[nH]c(=O)c1CNC(=O)c1c(C)n([C@H](C)C2CCC(N3CC(OC(F)F)C3)CC2)c2ccccc12 (single isomer, unassigned) [drawing 253]  H3K27me3 mark in HeLa cells (EZH2)    5 to 25 nM
 1  COc1cc(C)[nH]c(=O)c1CNC(=O)c1c(C)n([C@H](C)C2CCC(NC3COC3)CC2)c2ccccc12 (single isomer, unassigned) [drawing 207]  H3K27me3 mark in HeLa cells (EZH2)      > 125 nM
 2  Cc1cc(Cl)c(CNC(=O)c2c(C)n([C@H](C)C3CCC(NC4COC4)CC3)c3ccccc23)c(=O)[nH]1 (single isomer, unassigned) [drawing 211]  H3K27me3 mark in HeLa cells (EZH2)      > 125 nM
 3  CSc1cc(C)[nH]c(=O)c1CNC(=O)c1c(C)n([C@H](C)C2CCC(NC3(C)COC3)CC2)c2ccccc12 (single isomer, unassigned) [drawing 206]  H3K27me3 mark in HeLa cells (EZH2)    5 to 25 nM
 4  Cc1cc(C)c(CNC(=O)c2c(C)n([C@H](C)C3CCC(NC4COC4)CC3)c3ccccc23)c(=O)[nH]1 (single isomer, unassigned) [drawing 210]  H3K27me3 mark in HeLa cells (EZH2)  25 to 125 nM
 5  CSc1cc(C)[nH]c(=O)c1CNC(=O)c1c(C)n([C@H](C)C2CCC(NC3COC3)CC2)c2ccccc12 (single isomer, unassigned) [drawing 214]  H3K27me3 mark in HeLa cells (EZH2)  25 to 125 nM
 6  COC1CN(C2CCC([C@@H](C)n3c(C)c(C(=O)NCc4c(SC)cc(C)[nH]c4=O)c4ccccc43)CC2)C1 (single isomer, unassigned) [drawing 220]  H3K27me3 mark in HeLa cells (EZH2)    5 to 25 nM
 7  Cc1cc(Cl)c(CNC(=O)c2c(C)n([C@H](C)C3OCC(NC(C)(C)C)CO3)c3ccccc23)c(=O)[nH]1 (single isomer, unassigned) [drawing 222]  H3K27me3 mark in HeLa cells (EZH2)    5 to 25 nM
 8  Cc1cc(C)c(CNC(=O)c2c(C)n([C@H](C)C3CCC(NC4(C)COC4)CC3)c3ccccc23)c(=O)[nH]1 (single isomer, unassigned) [drawing 203]  H3K27me3 mark in HeLa cells (EZH2)  25 to 125 nM
 9  COc1cc(C)[nH]c(=O)c1CNC(=O)c1c(C)n([C@H](C)C2CCC(N3CC(OC)C3)CC2)c2ccccc12 (single isomer, unassigned) [drawing 218]  H3K27me3 mark in HeLa cells (EZH2)      > 125 nM
10  COC1CN(C2CCC([C@@H](C)n3c(C)c(C(=O)NCc4c(SC)cc(C)[nH]c4=O)c4cccnc43)CC2)C1 (single isomer, unassigned) [drawing 259]  H3K27me3 mark in HeLa cells (EZH2)    5 to 25 nM
11  CSc1cc(C)[nH]c(=O)c1CNC(=O)c1c(C)n([C@H](C)C2OCC(NC3(C)COC3)CO2)c2ccccc12 (single isomer, unassigned) [drawing 227]  H3K27me3 mark in HeLa cells (EZH2)        < 5 nM
12  Cc1cc(Cl)c(CNC(=O)c2c(C)n([C@H](C)C3OCC(NC4(C)COC4)CO3)c3ccccc23)c(=O)[nH]1 (single isomer, unassigned) [drawing 225]  H3K27me3 mark in HeLa cells (EZH2)      > 125 nM
13  COC1CCC([C@@H](C)n2c(C)c(C(=O)NCc3c(SC)cc(C)[nH]c3=O)c3ccccc32)CC1 (single isomer, unassigned) [drawing 248]  H3K27me3 mark in HeLa cells (EZH2)        < 5 nM
14  Cc1cc(Cl)c(CNC(=O)c2c(C)n([C@H](C)C3OCC(N(C)C)CO3)c3ccccc23)c(=O)[nH]1 (single isomer, unassigned) [drawing 230]  H3K27me3 mark in HeLa cells (EZH2)  25 to 125 nM
15  CSc1cc(C)[nH]c(=O)c1CNC(=O)c1c(C)n([C@H](C)C2OCC(NC(C)(C)C)CO2)c2ccccc12 (single isomer, unassigned) [drawing 224]  H3K27me3 mark in HeLa cells (EZH2)        < 5 nM
